Just for reference, a melting point compilation (Tetko et al.; mined from patent text by program, amines drawn as free bases though some values may be those of a salt) is where these values come from.

Recorded melting point for the following molecules

| molecule | observedProperty | valueReported |
| --- | --- | --- |
| CCOC(=O)c1cccc(-c2nc(=O)c3ccccc3s2)n1 | melting point | 170 to 172 °C |
| CNc1ccc(Cl)c(C(=O)Nc2cccc3c4c(oc23)CCCC4)c1Cl | melting point | 160 to 162 °C |
| CCCc1ccnc2c(=O)[nH]c(-c3cc(S(=O)(=O)NCCN4CCOCC4)ccc3OCC)nc12 | melting point | 165 to 166 °C |

What does the data say about its melting point? Entry: O=C1CCCCN1C1=CC(CF)(CF)Oc2ccc(C(F)(F)F)cc21 166 to 168 °C

Form field: reported melting point of O=C1COc2cc(OCc3c(F)cccc3F)ccc21 134 to 138 °C

Bench note: what melting point did CC(=O)N1CCN(c2ccc(NS(C)(=O)=O)c(C)c2)CC1 show? 153 to 154 °C

I would be grateful if you could share the reported melting point for Nc1sccc1C(=O)c1cccc(C(F)(F)F)c1 . 143 to 145 °C

May I ask what melting point has been recorded for CC(C)=CCN1CCc2c(sc(N)c2C(=O)c2ccc(I)cc2)C1 ? 148 to 150 °C

Requested read-out: melting point. Entry: CC(C)C(CCl)NC(=O)c1nsc2ccc(-n3c(=O)cc(C(F)(F)F)n(C)c3=O)cc12 (configuration not stated) 196 to 197 °C

Give the measured melting point of CC(C)[C@](C)(S)C(=O)O . 78 to 80 °C

Return reported melting point; argument: CN(C)CC/C=C1/c2ccccc2CCc2ccc(Br)cc21 73 to 75 °C

# melting point lookup, item CC(=O)CCN1C(=O)c2ccccc2S1(=O)=O 118 to 119 °C

Sample O=C1c2ccccc2C(=O)N1OCc1ccn(C(c2ccccc2)(c2ccccc2)c2ccccc2)n1 — what was its melting point? 177 to 179 °C

For the molecule N#CCc1cc(-c2ccc(Cl)cc2)n(-c2ccc(S(N)(=O)=O)cc2)n1 , what melting point is on record? 212 to 214 °C

What does the record list as melting point for CC1(C(=O)O)c2ccccc2Oc2ccccc21 ? 87 to 88 °C

Tell me the measured melting point of C[C@H]1C[C@@](O)(c2cccc(S(=O)(=O)c3cc4c(cc3F)N(C)C(=O)CC4)c2)CCO1 , please. 135 to 138 °C

// returns reported melting point for input OCc1cc(F)nc(F)c1 66 to 67 °C

Look up melting point: Cc1cccc2c1C1=C(CC2)NC(=O)CC1 168 to 169 °C

Using the record for O=C(N[C@@H](CO)c1ccccc1)c1ccco1 , report its melting point. 130 to 131 °C

I am curious: what melting point value has been reported for CC(Cn1ncc2ccc3c(c21)NC(=O)CO3)NC(=O)OC(C)(C)C (configuration not stated) ? 147 to 148 °C

Look at this molecule and give its reported melting point. COc1ccc(Cc2cc3c(cc2OC)OCO3)cc1 56 to 57 °C

Fill in: melting point of CN(C)C1CCc2c(c3ccccc3n2CC(=O)O)C1 (configuration not stated) is ___ 316 to 319 °C

Look at this molecule and give its reported melting point. COC(=O)CCS(=O)(=O)c1ccc(NC(C)=O)cc1 156 to 158 °C

Please look up its melting point: CN1CCC(n2nc(-c3c(-c4ccccc4)nn4ccccc34)ccc2=O)CC1 139 to 140 °C

Query (molecule): COc1cc2cc3c(Nc4ccc(Sc5nccn5C)c(Cl)c4)c(C#N)cnc3cc2cc1O ; field requested: melting point > 300 °C

// returns reported melting point for input Cc1c(CO)sc2cc(Br)ccc12 95 to 96 °C

// lookup melting point for Cc1cnc2[nH]cc(/C=C3\N=C(NCC(C)C)NC3=O)c2c1 338 to 339 °C
